Biological target: T1, recombinant human OX40L (extracellular domain, R&D Systems) (human, UniProt P23510 51-183)
T1 construct: also called hOX40L; rec. hOX40L
T1 sequence: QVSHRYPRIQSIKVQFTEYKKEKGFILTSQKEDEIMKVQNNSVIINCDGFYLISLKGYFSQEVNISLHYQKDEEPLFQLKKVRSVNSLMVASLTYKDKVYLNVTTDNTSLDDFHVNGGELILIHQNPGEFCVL
Test: SPR, second injection after competitor OX40L19D08
recorded endpoint: Binding Level sample 2 - sample 1 (RU)
API: value field is a number in RU; no unit string.

binder	obs value
OX40L18E09 (VHH, monovalent Nanobody from E. coli; not shown: C-terminal c-myc and His6 tag) VHH: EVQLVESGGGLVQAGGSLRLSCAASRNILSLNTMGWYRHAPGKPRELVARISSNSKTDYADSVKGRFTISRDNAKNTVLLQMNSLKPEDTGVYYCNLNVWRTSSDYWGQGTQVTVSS	-3

Prompt line: Given the binder OX40L01E07 (VHH, monovalent Nanobody from E. coli; not shown: C-terminal c-myc and His6 tag) VHH: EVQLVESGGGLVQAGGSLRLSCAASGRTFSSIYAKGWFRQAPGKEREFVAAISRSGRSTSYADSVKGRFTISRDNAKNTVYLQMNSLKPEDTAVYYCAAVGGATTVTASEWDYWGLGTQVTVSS , what is its reported Binding Level sample 2 - sample 1 (RU)?
Response line: 23

Taken from patent US20150218281A1.
